Entries and their pEC50 values follow.
Target: T1, human PVRIG on cells (human, UniProt Q6DKI7 1-326)
T1 construct: whole, on cells; over-expressed on HEK cells or endogenous on Jurkat and CD8 T cells; also called hPVRIG; HEK hPVRIG cells
T1 sequence (looked up): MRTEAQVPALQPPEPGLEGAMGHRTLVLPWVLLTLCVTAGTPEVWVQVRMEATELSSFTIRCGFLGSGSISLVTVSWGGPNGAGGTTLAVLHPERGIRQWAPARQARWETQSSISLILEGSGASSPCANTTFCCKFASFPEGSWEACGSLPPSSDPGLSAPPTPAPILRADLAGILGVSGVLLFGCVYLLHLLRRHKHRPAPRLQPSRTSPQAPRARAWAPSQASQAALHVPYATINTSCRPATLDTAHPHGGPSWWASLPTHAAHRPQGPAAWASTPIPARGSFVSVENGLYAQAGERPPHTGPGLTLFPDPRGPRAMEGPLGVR
Test: FACS, HEK hPVRIG cells (HEK OE)
Conceptually, pEC50 converts a concentration in mol/L into minus its log10.

binder	measured.value
CHA.7.535 (antibody, V domains shown) VH: EVQLQQSGPELVKPGASVKISCKTSGYTFTKNTMHWVRQSHGKSLEWIGGINPNSGGASFNQKFMGKATLTVDKSSSTAYMELRSLTSEDSAVYYCARDGYDGDWFFDVWGAGTTVTVSS VL: DIQMNQSPFSLSASLGDTVTITCHASQNIYVWLSWYQQKPGNIPKLLIYKASDLHTGVPSRFSGSGSGTDFTLNISSLQPEDIATYYCQQGQSYPRTFGGGTKLEIK	8.44
CHA.7.518 (antibody, V domains shown) VH: EVQLQQSGPELVKPGASVKISCKASGYTFTDYNINWVKQSHGKSLEWIGYIYPYIGGSGYNQKFKSKATLSADNPSSTAYMELRSLTSEDSAVYYCAREDKTARNAMDYWGQGTPVTVSS VL: DIQMTQSPASLSVSVGETVTIICRVSENIYSNLAWYQQKQGKSPQLLVYEATNLAEGVPSRFSGSGSGTQYSLKINSLQSEDFGSYYCQHFWGTPYTFGGGTKLEIK	9.44

What value of measured pEC50 is listed for CHA.7.516 (antibody, V domains shown) VH: QVQLQQSGPELVRPGVSVKISCKVSGYTFTDYVMHWVKQSHAKSLEWIGIISPYSGNTNYNQNFKGKATMTVDKSSSTAYMALARLTSEDSAIYYCAREGDLPMFAYWGQGTLVTVSA VL: QIVLTQSPTIMSASPGEKVTMTCSASSSVSYIYWYQQNPGSSPRLLIYDTSILASGVPFRFSGSGSGTSYSLTISRMEAEDAATYYCQQWTSYPLTFGSGTKLELK ? 9.10
